Tested on: UO-31 renal
Choose the fitting class; nothing outside active, inactive is accepted.

Answered cases to consult:
- molecule: "CS(=O)(=O)Nc1cc(-c2ccc3ncc(C#N)c(Nc4cccc(Cl)c4F)c3c2)cnc1Cl"
  class-label: "active"
- molecule: "CC(=O)OC[C@H]1OC(O)C=C[C@@H]1OC(C)=O (stereo not given in full)"
  class-label: "inactive"
- molecule: "C#CCN(C)CCCOc1ccc(NC(=O)CCCCCCC(=O)NO)cc1Cl"
  class-label: "inactive"
- molecule: "Cc1ccc2c(n1)C(=O)C(Cl)=C(Nc1cccc(C)c1C)C2=O"
  class-label: "inactive"

State the result this test recorded for Cc1ccc(C(=O)Nc2ccc(CNCCN3CCOCC3)c(C(F)(F)F)c2)cc1C#Cc1cnc2cccnn12 .
inactive
